The reported measurements were obtained from PubChem BioAssay (NCI).

test system: NCI-H460 lung; assay: NCI tumour cell line growth inhibition, 48 h
Record form. Attribute: TGI. Fill in for each entry.

stdin: Could you tell me which TGI is on file for `Cn1cc(-c2nc(-c3c[nH]c4ccncc34)cs2)c2cc(F)ccc21` ?
stdout: 3.42 µM

stdin: # repeat for `Cc1cccc(Cl)c1NC(=O)c1cnc(Nc2cc(N3CCOCC3)cc(N3CCOCC3)c2)s1`
stdout: > 10 µM

stdin: Thanks! And COC(=O)C(Cc1ccccc1)NC(=O)c1ccc(CNC(=S)NCc2cccc(CNC(=S)NCc3ccccc3)c2)cc1 (centres undefined) ?
stdout: > 62.5 µM

stdin: Next record, please: `COc1ccc(-c2cn(-c3cccc(C(=O)/C=C/c4ccc(O)c(OC)c4)c3)c(=O)[nH]2)cc1`
stdout: 10.4 µM

stdin: Follow-up item: `COc1ccc(/C=N\NC(=O)Nc2cccc3ccccc23)cc1`
stdout: 40.2 µM

stdin: Further, for CC1CC(=O)Nc2ccc(N=NN(C)C)cc2N1C=O (centres undefined) ?
stdout: > 100 µM

stdin: How about this compound: `CC1(C)CCC[C@]2(C)c3cc(O)ccc3CC[C@@H]12`
stdout: 40.9 µM

stdin: Try `Clc1cc(OCC23CC4CC(CC(C4)C2)C3)nc(OCC23CC4CC(CC(C4)C2)C3)n1` next.
stdout: > 100 µM

stdin: Same question, `CCC/C(Cl)=N\OC(=O)Nc1ccc(F)c([N+](=O)[O-])c1` this time
stdout: 34.9 µM

stdin: And then CC1(C)O[C@H]2OC(CO)C(OS(C)(=O)=O)[C@H]2O1 (some centres undefined) , what is it?
stdout: > 100 µM

stdin: Try this compound too: `CCOC(=O)C1=NN(c2ccc(Cl)cc2)C2=CC(C)=NN(C)C(=S)N21`
stdout: > 100 µM

stdin: Another: `COc1cc2cc3c4c(cc(OC)c(OC)c4c2cc1OC)CCN3C(=O)N(C)C`
stdout: > 100 µM

stdin: Try `O=C(/C=C/c1cccc([N+](=O)[O-])c1)c1ccc(O)c(CN2CCN(c3cc4c(cc3F)c(=O)c(C(=O)O)cn4C3CC3)CC2)c1` next.
stdout: 19.3 µM

stdin: Item: Clc1cccc(N2CCN(CCN3CCc4c([nH]c5ccccc45)C3c3cccnc3)CC2)c1 (centres undefined)
stdout: > 100 µM

stdin: Entry `CN1CCN(/C(N)=C(\C#N)C(=O)Nc2ccccc2)CC1` please
stdout: > 100 µM

stdin: Query `COc1cc(-c2csc(NC(=O)Nc3cc(C(F)(F)F)cc(C(F)(F)F)c3)n2)cc(OC)c1OC` next
stdout: 10.8 µM

stdin: How about CC(=O)OC1CC[C@@]2(C)C(CC[C@]3(C)C2CC=C2[C@@H]4CC(C)(C)CCC4(C)CCC23C)[C@@]1(C)C(=O)O (some centres undefined) ?
stdout: 37 µM

stdin: And COc1cc([C@H]2c3cc4c(cc3[C@H](NCc3ccc([N+](=O)[O-])cc3)C3COC(=O)[C@H]32)OCO4)cc(OC)c1O (some centres undefined) ?
stdout: 2.18 µM

stdin: Please give the result for `C/C(CC(=O)Nc1ccc(Cl)cc1)=N\NC(=O)C[n+]1ccccc1` too.
stdout: > 100 µM

---

test system: MDA-MB-435; assay: NCI tumour cell line growth inhibition, 48 h; in the data active means GI50 below about 0.43 µM; inactive means the rest
In this exercise, the only acceptable responses are yes for active, no for inactive

stdin: Hi, sorry to bother you, what did the test record for `O=C(/C=C/c1cccc([N+](=O)[O-])c1)c1ccc(O)c(CN2CCN(c3cc4c(cc3F)c(=O)c(C(=O)O)cn4C3CC3)CC2)c1` ?
stdout: no

stdin: Same question for CCN(CC)CCCC(C)Nc1c2ccc(Cl)cc2nc2cc(OC)c(OC)cc12 (stereo not given) please.
stdout: no

stdin: Same read-out for `CC1(C)N=C(N)N=C(N)N1c1ccc(CCc2ccc(Cl)cc2S(=O)(=O)F)c(Cl)c1` ?
stdout: no

stdin: What about `COc1cc(-c2csc(NC(=O)Nc3cc(C(F)(F)F)cc(C(F)(F)F)c3)n2)cc(OC)c1OC` ?
stdout: no

stdin: One more molecule: N#Cc1ccc(C2C3=C(CCCC3=O)OC3=C2C(=O)c2ccccc2C3=O)cc1 (stereo not given)
stdout: yes

stdin: Entry to check: `CCOc1ccc2nc(-c3cccc(OCC(=O)NC(C)C)c3)nc(Nc3ccc(-c4cn[nH]c4)cc3)c2c1`
stdout: no

stdin: Repeat with `COc1ccc(-c2nn(-c3cccc(Cl)c3)cc2-c2c(C#N)c(=O)n3[nH]c(-c4ccc(C)cc4)nc3c2C#N)cc1`
stdout: no

stdin: Query COc1ccc(SC2c3ccc(C)cc3Oc3nc(N)c(C#N)c(N)c32)cc1 (stereo not given) next
stdout: no

stdin: Here is the next molecule: `COc1ccc(-c2cn(-c3cccc(C(=O)/C=C/c4ccc(O)c(OC)c4)c3)c(=O)[nH]2)cc1`
stdout: no

stdin: Same lookup for `O=C(NCCN1CCC(O)CC1)c1cc2c(o1)C(=O)c1ccccc1C2=O` , please.
stdout: yes

stdin: Entry `O=c1oc(-c2ccccc2)cc2cccc(O)c12` please
stdout: no

stdin: `O=C1NC(=O)C(c2ccc(Cl)cc2)=C1Nc1ccc(Cl)c(C(=O)O)c1` , same question.
stdout: no

stdin: Same read-out for `CC1(C)CCC[C@]2(C)c3cc(O)ccc3CC[C@@H]12` ?
stdout: no

stdin: Next up: `CN1CCN(C(=O)c2c(NC(=O)NS(=O)(=O)c3ccccc3)sc3c2CCCCC3)CC1`
stdout: no

stdin: `COc1ccc2c3c(c4ccccc4cc13)C(=O)N(CCN(C)CCN)C2=O` ?
stdout: yes
